- Experimental target: 5-HT2A receptors (Homo sapiens, UniProt P28223)
- Sequence (P28223 whole entry): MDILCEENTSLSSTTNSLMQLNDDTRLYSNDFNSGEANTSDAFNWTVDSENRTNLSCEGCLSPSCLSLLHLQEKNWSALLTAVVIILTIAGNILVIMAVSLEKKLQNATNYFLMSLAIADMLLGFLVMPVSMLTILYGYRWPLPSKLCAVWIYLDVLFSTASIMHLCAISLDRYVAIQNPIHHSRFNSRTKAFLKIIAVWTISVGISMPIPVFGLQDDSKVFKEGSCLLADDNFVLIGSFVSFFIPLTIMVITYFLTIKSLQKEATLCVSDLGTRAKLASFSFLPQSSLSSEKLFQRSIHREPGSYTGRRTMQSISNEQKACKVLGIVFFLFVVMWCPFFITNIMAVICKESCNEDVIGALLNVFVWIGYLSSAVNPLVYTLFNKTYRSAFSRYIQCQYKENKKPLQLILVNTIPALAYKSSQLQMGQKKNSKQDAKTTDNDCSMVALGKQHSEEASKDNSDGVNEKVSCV
Quantity kind: pKi
On this scale, pKi is minus log10 of a concentration expressed in M (mol/L).

[ask] Missing value: pKi, 5-HT2A receptors (Homo sapiens, UniProt P28223), entry CNCc1ccccc1Sc1c[nH]c2cc(F)ccc12 . Fill in?
[reply] 7.85

====

- Experimental target: noradrenalin reuptake (Rattus norvegicus)
- Construct: rat cortical synaptosome preparation
- Sequence (Q63380 1-617): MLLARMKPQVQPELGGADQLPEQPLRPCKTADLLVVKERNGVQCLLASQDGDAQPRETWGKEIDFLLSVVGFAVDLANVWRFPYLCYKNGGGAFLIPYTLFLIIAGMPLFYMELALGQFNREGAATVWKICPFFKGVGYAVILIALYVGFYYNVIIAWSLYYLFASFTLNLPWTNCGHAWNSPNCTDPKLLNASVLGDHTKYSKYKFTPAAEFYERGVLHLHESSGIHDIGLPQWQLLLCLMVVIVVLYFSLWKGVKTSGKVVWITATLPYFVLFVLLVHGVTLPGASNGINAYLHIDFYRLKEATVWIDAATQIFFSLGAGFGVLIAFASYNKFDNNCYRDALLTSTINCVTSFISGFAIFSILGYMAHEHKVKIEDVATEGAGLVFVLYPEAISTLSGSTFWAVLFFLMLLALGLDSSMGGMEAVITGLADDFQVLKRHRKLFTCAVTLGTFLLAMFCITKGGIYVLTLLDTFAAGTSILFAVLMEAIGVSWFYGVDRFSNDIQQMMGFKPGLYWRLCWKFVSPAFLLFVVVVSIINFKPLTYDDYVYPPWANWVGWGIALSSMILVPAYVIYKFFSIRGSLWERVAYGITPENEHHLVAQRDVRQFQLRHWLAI
- Test protocol: Noradrenalin transport inhibition, [3H]NE uptake in rat cortical synaptosomes
- Test conditions: [3H]NE 10 nM
Quantity kind: IC50 (nM)
Write the answer as a number in nM, unit excluded.

[ask] Sample CNCc1ccccc1Sc1c[nH]c2cc(F)ccc12 [compounds of the present invention] — what was its IC50?
[reply] 4.4
